Biological target: T1, Recombinant human TSG-6 (R&D Biosystems, catalog #2104-TS) (human, UniProt P98066 18-277)
T1 construct: Bought protein; also called hTSG-6; Tumor necrosis factor-inducible gene 6 protein
T1 sequence (P98066 18-277 limits assumed): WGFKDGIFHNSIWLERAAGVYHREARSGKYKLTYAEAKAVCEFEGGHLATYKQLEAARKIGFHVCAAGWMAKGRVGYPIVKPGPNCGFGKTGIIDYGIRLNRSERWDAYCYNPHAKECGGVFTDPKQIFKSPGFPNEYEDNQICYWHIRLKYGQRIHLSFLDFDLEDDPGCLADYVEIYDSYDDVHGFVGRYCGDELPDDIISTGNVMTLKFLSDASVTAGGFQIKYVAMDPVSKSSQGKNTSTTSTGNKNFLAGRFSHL
Assay: ELISA of hybridoma supernatants on recombinant human TSG-6
PARAMETER MEASURED: binding result

[
  {
    "BINDER": "5A5 (antibody, V domains shown, Entries as printed include a leader and part of the constant region) VH: QVQLQQSGAELAKPGASVRLSCQASGYTFTTYWMHWVKQRPRQGLEWIGYIIPSSGYSKCHQKFKDKATLTADKSSNTASMQLSSLTYEDSAVYYCARSTSGYPYYFDYWGQGTTLTVSS VL: ENVLTQSPAIMSASPGEKVTMTCSATSSVSYMHWYQQKSSTSPKLWIYDTSKLASGVPGRFSGSGSGNSYSLTISSMEAEDVATYYCFQGSWYPLTFGAGTKLELKR",
    "PARAMETER MEASURED": "binding result",
    "REPORTED": "binds"
  },
  {
    "BINDER": "anti-TSG-6 antibody of SEQ ID NO: 1 and SEQ ID NO: 2 (first entry of Table 1, clone name not printed) (antibody, IgG1, V domains shown) VH: QVRLQQSGAELAKPGASVKLSCKASGYTFTSYWMHWVKQRPGQGLEWIGYIIPSSGYTKNKQNFKDKATLTADKSSSTAYMQLSNLTYEDSAVYSCARSDGSYPYYFDYWGQGTTLTVSS VL: ENVLTQSPAIMSASPGEKVTMTCSASSSVSYMHWYQQKSSTSPKLWIYDTSKLASGVPGRFSGSGSGNSYSLTISSMEAEDVATYYCFQGSGYPLTFGSGTKLEIKR",
    "PARAMETER MEASURED": "binding result",
    "REPORTED": "binds"
  },
  {
    "BINDER": "3E1 (antibody, V domains shown, Entries as printed include a leader and part of the constant region) VH: QVQLQQSGAELAKPGASVRLSCQASGYTFTSYWMHWVKQRPRQGLEWIGYIIPSSGYTKCHQKFKDKATLTADKSSSTAYMQLSSLTYEDSAVYYCARSTSGYPYYFDSWGQGTTLTVSS VL: ENVLTQSPAIMSASPGERVTMTCSATSSVSFMHWYQQKSSTSPKLWIYDTSKLASGVPGRFSGSGSGNSYSLTISSMEAEDVATYYCFQGSWYPLTFGAGTKLELKR",
    "PARAMETER MEASURED": "binding result",
    "REPORTED": "binds"
  }
]
